assay.target: Calcium/calmodulin-dependent protein kinase type II subunit alpha (Homo sapiens) (UniProt Q9UQM7)
Sequence (Q9UQM7 whole entry): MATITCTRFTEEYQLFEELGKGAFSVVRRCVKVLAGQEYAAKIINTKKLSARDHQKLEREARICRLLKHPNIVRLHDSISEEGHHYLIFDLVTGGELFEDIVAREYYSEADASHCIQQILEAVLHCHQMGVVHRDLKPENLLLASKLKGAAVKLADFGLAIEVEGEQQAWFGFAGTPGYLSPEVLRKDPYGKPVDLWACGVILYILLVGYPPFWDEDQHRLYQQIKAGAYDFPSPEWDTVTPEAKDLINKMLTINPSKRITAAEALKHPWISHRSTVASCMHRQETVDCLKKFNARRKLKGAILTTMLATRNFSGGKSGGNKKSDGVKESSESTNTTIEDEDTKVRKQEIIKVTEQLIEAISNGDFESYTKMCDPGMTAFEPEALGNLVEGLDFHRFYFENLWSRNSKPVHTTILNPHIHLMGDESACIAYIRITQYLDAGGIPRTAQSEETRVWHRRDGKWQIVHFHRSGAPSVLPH
procedure.text: Inhibition of human recombinant CAMK2alpha at < 10 uM after 10 mins by radiometric assay
Activity calls are given as the source filed them. The rule behind the calls is not given here.
property: inhibition

The cases that follow already have their inhibition on record.
COc1ncc2sc3c(c2n1)SCCNC3=O inactive
O=C1NCCCSc2c1sc1ccc(O)cc21 inactive
O=C1NCCCc2c1[nH]c1ccc(O)cc21 < 40%
COc1ccc2sc3c(c2c1)SCCCNC3=O inactive

Specify measured inhibition for COc1ccc2sc3c(c2c1)SCCNC3=O .
inactive

Quote inhibition reported for [N-]=[N+]=Nc1ccc2sc3c(c2c1)SCCNC3=O please.
< 40%

Supply recorded inhibition for O=C1NCCSc2c1sc1ccc(O)cc21 here.
inactive

Provide measured inhibition value, entry: O=C1NCCCc2c1oc1ccc(O)cc21
inactive
